Cited source for all entries: patent US20040132045A1

biological target: T1, rhesus monkey MCH-2R (melanin-concentrating hormone type 2 receptor) (rhesus monkey, UniProt Q8MJ88 1-340); assay: displacement of 100 pM [125I]-[Phe13, Tyr19]-MCH from HEK293T cells expressing rhesus MCH-2R, filtration
T1 construct: also called rhesus MCH-2R
T1 sequence (Q8MJ88 whole entry): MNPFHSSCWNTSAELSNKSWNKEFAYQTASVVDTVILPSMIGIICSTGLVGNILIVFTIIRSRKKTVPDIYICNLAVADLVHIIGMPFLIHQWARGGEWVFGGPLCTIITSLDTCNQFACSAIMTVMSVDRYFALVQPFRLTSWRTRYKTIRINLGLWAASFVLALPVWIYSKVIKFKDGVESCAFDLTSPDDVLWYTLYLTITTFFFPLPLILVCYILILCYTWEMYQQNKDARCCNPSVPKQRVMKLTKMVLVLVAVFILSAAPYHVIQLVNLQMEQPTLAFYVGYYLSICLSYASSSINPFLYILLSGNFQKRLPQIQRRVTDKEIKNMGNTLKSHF
Where no end group is shown, it is not given here.
observationType: IC50
// unit must come after the numeric part

[in] // IC50 lookup, key: DFDMLRCMLGRVFRPCWQY (ends and bridges not checked; cysteine pairing not given here) [[Phe^13, Tyr^19]-MCH]
[out] 3.8 nM
